Total protein release into PBS: recorded values
test system: foot mucosa of slugs of the species Arion; assay: Slug mucosal toxicity test of local anaesthetics, Example 4; assay type: in vivo; settings: Arion (slug), in vivo, 3 day
Counter-ions that a name gives are not always drawn.
Report as a plain number; the unit µg/mL is understood.

Known results for compounds:
{"compound": "CCN(CC)CCOC(=O)c1ccc(N)cc1 [Procaine HCl, procaine HCl]", "assayed target": "foot mucosa of slugs of the species Arion", "unit abbreviation": "µg/mL", "Total protein release into PBS": 92}
{"compound": "CCCNC(C)C(=O)Nc1ccccc1C (stereo not shown) [Prilocaine HCl, prilocaine HCl]", "assayed target": "foot mucosa of slugs of the species Arion", "unit abbreviation": "µg/mL", "Total protein release into PBS": 72}
{"compound": "CCCCN1CCCCC1C(=O)Nc1c(C)cccc1C (stereo not shown) [Bupivacaine HCl, bupivacaine HCl]", "assayed target": "foot mucosa of slugs of the species Arion", "unit abbreviation": "µg/mL", "Total protein release into PBS": 277}

Next, consider the following compound.
Input: Could you share which Total protein release into PBS value was measured for CCCCNc1ccc(C(=O)OCCN(C)C)cc1 [Tetracaine HCl, tetracaine HCl] ?
Output: 120

====

tested on: foot mucosa of slugs of the species Arion; assay: Slug mucosal toxicity test of local anaesthetics, Example 4; format: in vivo; conditions: Arion (slug), in vivo, 1 day
Where a name gives a salt, the structure may show the parent alone.
Total protein release into PBS: recorded values
I'd appreciate it if you included the unit after the number.

Known results for compounds:
{"compound": "CCCNC(C)C(=O)Nc1ccccc1C (stereo not shown) [Prilocaine HCl, prilocaine HCl]", "measured parameter": "Total protein release into PBS", "result": "139 µg/mL"}
{"compound": "CCCCN1CCCCC1C(=O)Nc1c(C)cccc1C (stereo not shown) [Bupivacaine HCl, bupivacaine HCl]", "measured parameter": "Total protein release into PBS", "result": "755 µg/mL"}
{"compound": "CCN(CC)CCOC(=O)c1ccc(N)cc1 [Procaine HCl, procaine HCl]", "measured parameter": "Total protein release into PBS", "result": "204 µg/mL"}

Input: API: value(readout= Total protein release into PBS, system= foot mucosa of slugs of the species Arion, query= CCCCNc1ccc(C(=O)OCCN(C)C)cc1 [Tetracaine HCl, tetracaine HCl] )
Output: 413 µg/mL

====

system: foot mucosa of slugs of the species Arion; experiment: Slug mucosal toxicity test of local anaesthetics, Example 4; format: in vivo; conditions: Arion (slug), in vivo, 5 day
Where a name gives a salt, the structure may show the parent alone.
Total protein release into PBS: recorded values
I'd appreciate it if you included the unit after the number.

Known results for molecules:
{"molecule": "CCN(CC)CCOC(=O)c1ccc(N)cc1 [Procaine HCl, procaine HCl]", "assayed target": "foot mucosa of slugs of the species Arion", "result": "70 µg/mL"}
{"molecule": "CCCCN1CCCCC1C(=O)Nc1c(C)cccc1C (stereo not shown) [Bupivacaine HCl, bupivacaine HCl]", "assayed target": "foot mucosa of slugs of the species Arion", "result": "313 µg/mL"}

Input: Could you share which Total protein release into PBS value was measured for CCCNC(C)C(=O)Nc1ccccc1C (stereo not shown) [Prilocaine HCl, prilocaine HCl] ?
Output: 82 µg/mL

Input: Could you share which Total protein release into PBS value was measured for CCCCNc1ccc(C(=O)OCCN(C)C)cc1 [Tetracaine HCl, tetracaine HCl] ?
Output: 149 µg/mL

Every entry's value here was drawn from patent US6436630B1.
